- Test system: KRAS patient-derived spheroids with HUVEC/MSC, viability
- Assay Comment: Anticancer human tumor 519858-162-T-J1-PDC patient-derived colon adenocarcinoma cell line growth inhibition [KRAS2]
- Test Conditions: second compound 3.16 µM; first compound 0.0316 µM; active compounds read low
Test Readout: viability, T/C (%)
Give the quantity in %, number only.

Below are worked cases with known answers.
1) Cn1nccc1Nc1nccc(-c2cc3c(s2)C(C)(C)N(CCN2CCOCC2)C3=O)n1 + C=CC(=O)N1CCN(c2nc(OCC3CCCN3C)nc3c2CCN(c2cccc4cccc(C)c24)C3)CC1CC#N	47.6
2) CCN1CCN(Cc2ccc(Nc3ncc(F)c(-c4cc(F)c5nc(C)n(C(C)C)c5c4)n3)nc2)CC1 + CC1OCC2(CCN(c3cnc(Sc4ccnc(N)c4Cl)c(N)n3)CC2)C1N	57.9
3) Cn1nccc1Nc1nccc(-c2cc3c(s2)C(C)(C)N(CCN2CCOCC2)C3=O)n1 + C=CC(=O)N1CCN(c2nc(=O)n(-c3c(C)ccnc3C(C)C)c3nc(-c4c(O)cccc4F)c(F)cc23)C(C)C1	82.3

Qu. Recorded viability, T/C for CC(C)NCC(C(=O)N1CCN(c2ncnc3c2C(C)CC3O)CC1)c1ccc(Cl)cc1 (stereo not given) + COc1cc2nc(C)nc(NC(C)c3cc(N)cc(C(F)(F)F)c3)c2cc1OC1CCOC1 with KRAS patient-derived spheroids with HUVEC/MSC, viability, please?
Ans. 78

Qu. Could you share what viability, T/C was measured for COC(=O)c1ccc2c(C(=Nc3ccc(N(C)C(=O)CN4CCN(C)CC4)cc3)c3ccccc3)c(O)[nH]c2c1 + COc1cc2nc(C)nc(NC(C)c3cc(N)cc(C(F)(F)F)c3)c2cc1OC1CCOC1 , tested on KRAS patient-derived spheroids with HUVEC/MSC, viability?
Ans. 64.3

###

- Tested on: KRAS patient-derived spheroids with HUVEC/MSC, viability
- Assay Comment: Anticancer human tumor 519858-162-T-J1-PDC cell line growth inhibition [KRAS2];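 also: compound exposure lasted seven days before readout; 100% = DMSO vehicle control viability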
- Test Conditions: second compound 3.16 µM; first compound 0.001 µM; active compounds read low
Lab note - cut at 60% for viability, T/C: yes (1) if strictly below, no (0) if not.

Answered examples (3):
1) CC(=O)Nc1cccc(-n2c(=O)n(C3CC3)c(=O)c3c(Nc4ccc(I)cc4F)n(C)c(=O)c(C)c32)c1 + C=CC(=O)N1CCN(c2nc(=O)n(-c3c(C)ccnc3C(C)C)c3nc(-c4c(O)cccc4F)c(F)cc23)C(C)C1	no (0)
2) CC(=O)Nc1cccc(-n2c(=O)n(C3CC3)c(=O)c3c(Nc4ccc(I)cc4F)n(C)c(=O)c(C)c32)c1 + C=CC(=O)N1CCN(c2nc(OCC3CCCN3C)nc3c2CCN(c2cccc4cccc(C)c24)C3)CC1CC#N	yes (1)
3) CC(C)n1nc(-c2ccc3oc(N)nc3c2)c2c(N)ncnc21 + CC1OCC2(CCN(c3cnc(Sc4ccnc(N)c4Cl)c(N)n3)CC2)C1N	no (0)

Qu. # TODO verify viability, T/C < 60% strictly for this molecule: CC(C)n1nc(-c2ccc3oc(N)nc3c2)c2c(N)ncnc21 + CNCc1ccccc1-c1csc(C(C)Nc2nc(C)nc3cc(OC)c(OC)cc23)c1
Ans. no (0)

Qu. Consider the molecule Cn1ncnc1[C@H]1c2n[nH]c(=O)c3cc(F)cc(c23)N[C@@H]1c1ccc(F)cc1 + C=CC(=O)N1CCN(c2nc(=O)n(-c3c(C)ccnc3C(C)C)c3nc(-c4c(O)cccc4F)c(F)cc23)C(C)C1 . Is its viability, T/C strictly less than 60%?
Ans. no (0)

Qu. Just wondering, is viability, T/C of CC(C)n1nc(-c2ccc3oc(N)nc3c2)c2c(N)ncnc21 + C=CC(=O)N1CCN(c2nc(=O)n(-c3c(C)ccnc3C(C)C)c3nc(-c4c(O)cccc4F)c(F)cc23)C(C)C1 below 60%?
Ans. no (0)

Qu. Is viability, T/C of CC(C)n1nc(-c2ccc3oc(N)nc3c2)c2c(N)ncnc21 + COc1cc2nc(C)nc(NC(C)c3cc(N)cc(C(F)(F)F)c3)c2cc1OC1CCOC1 strictly below 60%?
Ans. no (0)

Qu. Is the reported viability, T/C for CC(=O)Nc1cccc(-n2c(=O)n(C3CC3)c(=O)c3c(Nc4ccc(I)cc4F)n(C)c(=O)c(C)c32)c1 + CNCc1ccccc1-c1csc(C(C)Nc2nc(C)nc3cc(OC)c(OC)cc23)c1 strictly below 60%?
Ans. yes (1)

Qu. Problem: For the molecule CC(=O)Nc1cccc(-n2c(=O)n(C3CC3)c(=O)c3c(Nc4ccc(I)cc4F)n(C)c(=O)c(C)c32)c1 + COc1cc2nc(C)nc(NC(C)c3cc(N)cc(C(F)(F)F)c3)c2cc1OC1CCOC1 , is viability, T/C under 60%?
Ans. yes (1)

Qu. Item CN(C)C/C=C/C(=O)Nc1cc2c(Nc3ccc(F)c(Cl)c3)ncnc2cc1O[C@H]1CCOC1 + COc1cc2nc(C)nc(NC(C)c3cc(N)cc(C(F)(F)F)c3)c2cc1OC1CCOC1 : viability, T/C beneath 60%, strictly?
Ans. no (0)
